Measurement Target: T1, human CD30 (commercial), conjugated to digoxigenin (human) (UniProt P28908)
T1 sequence (conjugated to digoxigenin (DIG), looked up): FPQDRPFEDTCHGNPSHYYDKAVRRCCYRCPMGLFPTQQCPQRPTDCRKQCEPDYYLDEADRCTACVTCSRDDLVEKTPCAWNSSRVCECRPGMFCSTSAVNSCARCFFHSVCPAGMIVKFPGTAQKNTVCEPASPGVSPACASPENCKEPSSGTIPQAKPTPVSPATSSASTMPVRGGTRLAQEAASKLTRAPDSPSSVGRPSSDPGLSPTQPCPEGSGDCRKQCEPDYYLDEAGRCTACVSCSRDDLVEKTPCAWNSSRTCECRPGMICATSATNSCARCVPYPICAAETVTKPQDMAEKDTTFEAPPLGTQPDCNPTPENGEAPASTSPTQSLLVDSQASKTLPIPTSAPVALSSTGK
Assay Details: AlphaScreen competition with biotin-WT AC10
Assay Readout: IC50 (nM)

Binder	Endpoint Result
AC10 H3L1 (H3 AC10 VH, L1 AC10 VL) (antibody, from a related filing, IgG1, V domains shown) VH: QIQLVQSGPEVKKPGASVKVSCKASGYTFTDYYITWVRQAPGQGLEWMGWIYPGSGNTKYNEKFQGRFVFSVDTSASTAYLQISSLKAEDTAVYFCANYGNYWFAYWGQGTLVTVSS VL: DIVLTQSPATLSLSPGERATLSCRASQSVDFDGDSYMNWYQQKPGQPPKVLIYAASNLESGIPARFSGSGSGTDFTLTISSLQPEDFATYYCQQSNEDPWTFGGGTKVEIK	6.09

Measured values drawn from patent US20110236969A1 for this set.
